tested on: edema in the hind paws (carrageenan); experiment: carrageenan-induced hind paw edema, oral administration; assay type: in vivo, male Wistar rats; details: Rattus norvegicus, 10 mg/kg orally, 4 hr, read-out: Inhibition (%) 4 hr
Everything with inhibition in vivo at 10 mg/kg lower than 50% is NO; everything else, including exactly 50%, is YES.

[
  {
    "COMPOUND": "CCOC(=O)C(C)c1ccc2c(c1)CCc1ccccc1O2 (centres unmarked) [Compound 14]",
    "CLASSIFICATION": "YES"
  },
  {
    "COMPOUND": "CC(C(=O)O)c1ccc2c(c1)Sc1ccccc1CC2 (centres unmarked) [Compound 9]",
    "CLASSIFICATION": "NO"
  },
  {
    "COMPOUND": "CC(C(=O)O)c1ccc2c(c1)C(=O)Cc1cccnc1S2 (centres unmarked) [Compound 20]",
    "CLASSIFICATION": "NO"
  },
  {
    "COMPOUND": "CCOC(=O)C(C)c1ccc2c(c1)Sc1ncccc1CC2 (centres unmarked) [Compound 25]",
    "CLASSIFICATION": "YES"
  },
  {
    "COMPOUND": "CC(C(=O)O)c1ccc2c(c1)Oc1ccccc1CC2=O (centres unmarked) [Compound 16]",
    "CLASSIFICATION": "NO"
  },
  {
    "COMPOUND": "CCOC(=O)C(C)c1ccc2c(c1)CCc1cccnc1S2 (centres unmarked) [Compound 22]",
    "CLASSIFICATION": "YES"
  },
  {
    "COMPOUND": "CC(C(=O)O)c1ccc2c(c1)CCc1ccccc1S2 (centres unmarked) [Compound 4]",
    "CLASSIFICATION": "NO"
  },
  {
    "COMPOUND": "CC(C(N)=O)c1ccc2c(c1)C(=O)Cc1ccccc1O2 (centres unmarked) [Compound 10]",
    "CLASSIFICATION": "YES"
  },
  {
    "COMPOUND": "CC(C(=O)O)c1cccc2c1Oc1ccccc1CC2 (centres unmarked) [Compound 19]",
    "CLASSIFICATION": "NO"
  },
  {
    "COMPOUND": "CC(C(N)=O)c1ccc2c(c1)C(=O)Cc1ccccc1S2 (centres unmarked) [Compound 1]",
    "CLASSIFICATION": "YES"
  },
  {
    "COMPOUND": "CCCCC1C(=O)N(c2ccccc2)N(c2ccccc2)C1=O [Phenyl butazone, reference compound]",
    "CLASSIFICATION": "NO"
  },
  {
    "COMPOUND": "CC(C(=O)O)c1ccc2c(c1)CCc1ccccc1O2 (centres unmarked) [Compound 13]",
    "CLASSIFICATION": "YES"
  },
  {
    "COMPOUND": "CC(C(=O)O)c1ccc2c(c1)Sc1ccccc1CC2=O (centres unmarked) [Compound 6]",
    "CLASSIFICATION": "NO"
  },
  {
    "COMPOUND": "COc1ccc2c(c1)c(CC(=O)O)c(C)n2C(=O)c1ccc(Cl)cc1 [Indomethacin, reference compound]",
    "CLASSIFICATION": "YES"
  }
]
